This collection of values is drawn from patent US20230041996A1.

The reader will find reported Relative fold of histamine release in vitro values listed item by item below.
Test system: rat peritoneal mast cells
assay-summary: In vitro histamine release in rat peritoneal mast cells (histamine ELISA)
Assay type: cell-based
condition-details: test compound final concentration 10 μM, 15 min at 37° C., relative to PBS buffer (1.00)
Square brackets hold non-standard residues; d marks the D form. Peptide text beside a SMILES is read from it. * marks the point of attachment. Cys(free,S-linked) = N[C@@H](CS*)C(=O)O; d(hLeu) = CC(C)CC[C@@H](N)C(=O)O; dChg = N[C@@H](C(=O)O)C1CCCCC1
assay-endpoint: Relative fold of histamine release in vitro

| molecule | measurement |
| --- | --- |
| CC(=O)N[C@H](CSSC[C@H](N)C(=O)O)C(=O)N[C@H](CCCNC(=N)N)C(=O)N[C@H](CCCNC(=N)N)C(=O)N[C@H](CCC(C)C)C(=O)N[C@H](CCCNC(=N)N)C(=O)NCC(=O)N[C@H](CCCNC(=N)N)C(N)=O [Compound 34, Ac-c(C)-r-r-(D-hLeu)-r-G-r-NH2] (Ac-[dC](Cys(free,S-linked))[dR][dR][d(hLeu)][dR]G[dR]-NH2) | 2.28 |
| CC(=O)N[C@H](CSSC[C@H](N)C(=O)O)C(=O)N[C@H](Cc1c[nH]c2ccccc12)C(=O)N[C@H](CCCNC(=N)N)C(=O)N[C@H](CCCNC(=N)N)C(=O)N[C@H](CCCNC(=N)N)C(=O)N[C@H](C)C(=O)N[C@H](CCCNC(=N)N)C(N)=O [Compound 5, Ac-c(C)-(D-Trp)-r-r-r-a-r-NH2] (Ac-[dC](Cys(free,S-linked))[dW][dR][dR][dR][dA][dR]-NH2) | 4.13 |
| CC(=O)N[C@H](CSSC[C@H](N)C(=O)O)C(=O)N[C@H](CCCNC(=N)N)C(=O)N[C@H](CCCNC(=N)N)C(=O)N[C@@H](C(=O)N[C@H](CCCNC(=N)N)C(=O)N[C@H](C)C(=O)N[C@H](CCCNC(=N)N)C(N)=O)C1CCCCC1 [Compound 20, Ac-c(C)-r-r-(D-Chg)-r-a-r-NH2] (Ac-[dC](Cys(free,S-linked))[dR][dR][dChg][dR][dA][dR]-NH2) | 2.33 |
| CC(=O)N[C@H](CSSC[C@H](N)C(=O)O)C(=O)N[C@H](CCCNC(=N)N)C(=O)N[C@H](CCCNC(=N)N)C(=O)N[C@@H](C(=O)N[C@H](CCCNC(=N)N)C(=O)N[C@H](CO)C(=O)N[C@H](CCCNC(=N)N)C(N)=O)C(C)C [Compound 29, Ac-c(C)-r-r-v-r-s-r-NH2] (Ac-[dC](Cys(free,S-linked))[dR][dR][dV][dR][dS][dR]-NH2) | 0.99 |
| CC(=O)N[C@H](CSSC[C@H](N)C(=O)O)C(=O)N[C@H](Cc1c[nH]cn1)C(=O)N[C@H](CCCNC(=N)N)C(=O)N[C@H](CCCNC(=N)N)C(=O)N[C@H](CCCNC(=N)N)C(=O)NCC(=O)N[C@H](CCCNC(=N)N)C(N)=O [Compound 7, Ac-c(C)-h-r-r-r-G-r-NH2] (Ac-[dC](Cys(free,S-linked))[dH][dR][dR][dR]G[dR]-NH2) | 2.24 |
| CC(=O)N[C@H](CSSC[C@H](N)C(=O)O)C(=O)N[C@H](CCCNC(=N)N)C(=O)N[C@H](CCCNC(=N)N)C(=O)N[C@H](CCC(C)C)C(=O)N[C@H](CCCNC(=N)N)C(=O)N[C@H](C)C(=O)N[C@H](CCCNC(=N)N)C(N)=O [Compound 19, Ac-c(C)-r-r-(D-hLeu)-r-a-r-NH2] (Ac-[dC](Cys(free,S-linked))[dR][dR][d(hLeu)][dR][dA][dR]-NH2) | 2.07 |
| CC(=O)N[C@H](CSSC[C@H](N)C(=O)O)C(=O)N[C@H](CO)C(=O)N[C@H](CCCNC(=N)N)C(=O)N[C@H](CCCNC(=N)N)C(=O)N[C@H](CCCNC(=N)N)C(=O)NCC(=O)N[C@H](CCCNC(=N)N)C(N)=O [Compound 8, Ac-c(C)-s-r-r-r-G-r-NH2] (Ac-[dC](Cys(free,S-linked))[dS][dR][dR][dR]G[dR]-NH2) | 1.50 |

---

measured-target: human calcium-sensing receptor (CaSR) (Homo sapiens)
Construct: host or cells: HEK293
Sequence (P41180 20-1078): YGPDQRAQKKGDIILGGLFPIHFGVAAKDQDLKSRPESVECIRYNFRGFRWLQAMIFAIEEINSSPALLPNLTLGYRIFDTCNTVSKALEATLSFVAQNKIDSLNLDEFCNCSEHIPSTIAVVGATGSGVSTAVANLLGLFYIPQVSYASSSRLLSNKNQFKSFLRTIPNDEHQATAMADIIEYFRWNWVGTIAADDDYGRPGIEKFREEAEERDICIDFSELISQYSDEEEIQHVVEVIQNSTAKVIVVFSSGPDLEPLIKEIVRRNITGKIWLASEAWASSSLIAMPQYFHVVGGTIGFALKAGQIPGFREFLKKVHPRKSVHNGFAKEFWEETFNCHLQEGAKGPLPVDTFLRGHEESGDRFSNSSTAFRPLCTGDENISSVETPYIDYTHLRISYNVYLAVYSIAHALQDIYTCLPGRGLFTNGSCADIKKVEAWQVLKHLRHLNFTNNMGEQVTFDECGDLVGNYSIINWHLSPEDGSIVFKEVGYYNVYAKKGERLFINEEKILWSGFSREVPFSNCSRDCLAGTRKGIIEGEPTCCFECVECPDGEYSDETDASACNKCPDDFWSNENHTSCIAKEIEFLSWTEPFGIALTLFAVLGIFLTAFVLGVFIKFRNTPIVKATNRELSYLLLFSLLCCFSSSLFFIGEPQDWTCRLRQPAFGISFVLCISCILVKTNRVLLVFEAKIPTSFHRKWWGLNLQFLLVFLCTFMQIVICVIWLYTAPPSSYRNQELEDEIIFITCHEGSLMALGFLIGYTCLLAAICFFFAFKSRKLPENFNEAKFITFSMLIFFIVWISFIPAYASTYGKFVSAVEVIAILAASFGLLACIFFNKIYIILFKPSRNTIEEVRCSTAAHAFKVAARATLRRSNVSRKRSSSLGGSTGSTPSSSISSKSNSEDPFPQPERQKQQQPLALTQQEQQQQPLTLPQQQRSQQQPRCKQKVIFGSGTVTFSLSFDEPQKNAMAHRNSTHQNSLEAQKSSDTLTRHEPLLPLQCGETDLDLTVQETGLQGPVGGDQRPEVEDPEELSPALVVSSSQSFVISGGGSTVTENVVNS
assay-summary: Agonist activity on human calcium-sensing receptor (IP-One HTRF in stably transfected HEK293/CaSR cells)
Assay type: cell-based
condition-details: HEK293/CaSR cells, IP-One production, 60 min at 37° C., CaCl2 1.2 mM; read-out: EC50 for calcium-sensing receptor
Square brackets hold non-standard residues; d marks the D form. Peptide text beside a SMILES is read from it. * marks the point of attachment. dPhe(4-Me) = Cc1ccc(C[C@@H](N)C(=O)O)cc1; Cys(free,S-linked) = N[C@@H](CS*)C(=O)O; d2Nal = N[C@H](Cc1ccc2ccccc2c1)C(=O)O; dChg = N[C@@H](C(=O)O)C1CCCCC1; dPhg = N[C@@H](C(=O)O)c1ccccc1; dTle = CC(C)(C)[C@@H](N)C(=O)O

| molecule | EC50 (µM) |
| --- | --- |
| CC(=O)N[C@H](CSSC[C@H](N)C(=O)O)C(=O)N[C@H](CCCNC(=N)N)C(=O)N[C@H](CCCNC(=N)N)C(=O)N[C@@H](C(=O)N[C@H](CCCNC(=N)N)C(=O)N[C@H](C)C(=O)N[C@H](CCCNC(=N)N)C(N)=O)C1CCCCC1 [Compound 20, Ac-c(C)-r-r-(D-Chg)-r-a-r-NH2] (Ac-[dC](Cys(free,S-linked))[dR][dR][dChg][dR][dA][dR]-NH2) | 7.53 |
| CC(=O)N[C@H](CSSC[C@H](N)C(=O)O)C(=O)N[C@H](Cc1ccc(C)cc1)C(=O)N[C@H](CCCNC(=N)N)C(=O)N[C@H](CCCNC(=N)N)C(=O)N[C@H](CCCNC(=N)N)C(=O)N[C@H](C)C(=O)N[C@H](CCCNC(=N)N)C(N)=O [Compound 3, Ac-c(C)-[D-Phe(4-CH3)]-r-r-r-a-r-NH2] (Ac-[dC](Cys(free,S-linked))[dPhe(4-Me)][dR][dR][dR][dA][dR]-NH2) | 15.3 |
| CC(=O)N[C@H](CSSC[C@H](N)C(=O)O)C(=O)N[C@H](CCCNC(=N)N)C(=O)N[C@H](CCCNC(=N)N)C(=O)N[C@@H](C(=O)N[C@H](CCCNC(=N)N)C(=O)N[C@H](C)C(=O)N[C@H](CCCNC(=N)N)C(N)=O)C(C)(C)C [Compound 18, Ac-c(C)-r-r-(D-Tle)-r-a-r-NH2] (Ac-[dC](Cys(free,S-linked))[dR][dR][dTle][dR][dA][dR]-NH2) | 13.4 |
| CC(=O)N[C@H](CSSC[C@H](N)C(=O)O)C(=O)N[C@H](CCCNC(=N)N)C(=O)N[C@H](CCCNC(=N)N)C(=O)N[C@@H](C(=O)N[C@H](CCCNC(=N)N)C(=O)NCC(=O)N[C@H](CCCNC(=N)N)C(N)=O)C(C)(C)C [Compound 38, Ac-c(C)-r-r-(D-Tle)-r-G-r-NH2] (Ac-[dC](Cys(free,S-linked))[dR][dR][dTle][dR]G[dR]-NH2) | 18.7 |
| CC(=O)N[C@H](CSSC[C@H](N)C(=O)O)C(=O)N[C@H](Cc1c[nH]cn1)C(=O)N[C@H](CCCNC(=N)N)C(=O)N[C@H](CCCNC(=N)N)C(=O)N[C@H](CCCNC(=N)N)C(=O)N[C@H](CO)C(=O)N[C@H](CCCNC(=N)N)C(N)=O [Compound 10, Ac-c(C)-h-r-r-r-s-r-NH2] (Ac-[dC](Cys(free,S-linked))[dH][dR][dR][dR][dS][dR]-NH2) | 3.52 |
| CC(=O)N[C@H](CSSC[C@H](N)C(=O)O)C(=O)N[C@H](CCCNC(=N)N)C(=O)N[C@H](CCCNC(=N)N)C(=O)N[C@H](Cc1c[nH]cn1)C(=O)N[C@H](CCCNC(=N)N)C(=O)NCC(=O)N[C@H](CCCNC(=N)N)C(N)=O [Compound 28, Ac-c(C)-r-r-h-r-G-r-NH2] (Ac-[dC](Cys(free,S-linked))[dR][dR][dH][dR]G[dR]-NH2) | 21.5 |
| CC(=O)N[C@H](CSSC[C@H](N)C(=O)O)C(=O)N[C@H](C)C(=O)N[C@H](CCCNC(=N)N)C(=O)N[C@H](CCCNC(=N)N)C(=O)N[C@H](CCCNC(=N)N)C(=O)N[C@H](C)C(=O)N[C@H](CCCNC(=N)N)C(N)=O [Etelcalcetide, Ac-c(C)-a-r-r-r-a-r-NH2, reference compound] | 6.78 |
| CC(=O)N[C@H](CSSC[C@H](N)C(=O)O)C(=O)N[C@H](CCCNC(=N)N)C(=O)N[C@H](CCCNC(=N)N)C(=O)N[C@H](Cc1ccc2ccccc2c1)C(=O)N[C@H](CCCNC(=N)N)C(=O)N[C@H](C)C(=O)N[C@H](CCCNC(=N)N)C(N)=O [Compound 15, Ac-c(C)-r-r-(D-2-NaI)-r-a-r-NH2] (Ac-[dC](Cys(free,S-linked))[dR][dR][d2Nal][dR][dA][dR]-NH2) | 5.59 |
| CC(=O)N[C@H](CSSC[C@H](N)C(=O)O)C(=O)N[C@@H](C(=O)N[C@H](CCCNC(=N)N)C(=O)N[C@H](CCCNC(=N)N)C(=O)N[C@H](CCCNC(=N)N)C(=O)N[C@H](C)C(=O)N[C@H](CCCNC(=N)N)C(N)=O)c1ccccc1 [Compound 1, Ac-c(C)-(D-Phg)-r-r-r-a-r-NH2] (Ac-[dC](Cys(free,S-linked))[dPhg][dR][dR][dR][dA][dR]-NH2) | 15.7 |
| CC(=O)N[C@H](CSSC[C@H](N)C(=O)O)C(=O)N[C@H](CCCNC(=N)N)C(=O)N[C@H](CCCNC(=N)N)C(=O)N[C@H](Cc1ccc(C)cc1)C(=O)N[C@H](CCCNC(=N)N)C(=O)N[C@H](C)C(=O)N[C@H](CCCNC(=N)N)C(N)=O [Compound 12, Ac-c(C)-r-r-[D-Phe(4-CH3)]-r-a-r-NH2] (Ac-[dC](Cys(free,S-linked))[dR][dR][dPhe(4-Me)][dR][dA][dR]-NH2) | 1.28 |
| CC(=O)N[C@H](CSSC[C@H](N)C(=O)O)C(=O)N[C@H](CO)C(=O)N[C@H](CCCNC(=N)N)C(=O)N[C@H](CCCNC(=N)N)C(=O)N[C@H](CCCNC(=N)N)C(=O)NCC(=O)N[C@H](CCCNC(=N)N)C(N)=O [Compound 8, Ac-c(C)-s-r-r-r-G-r-NH2] (Ac-[dC](Cys(free,S-linked))[dS][dR][dR][dR]G[dR]-NH2) | 14.3 |
| CC(=O)N[C@H](CSSC[C@H](N)C(=O)O)C(=O)N[C@H](CCCNC(=N)N)C(=O)N[C@H](CCCNC(=N)N)C(=O)N[C@@H](C(=O)N[C@H](CCCNC(=N)N)C(=O)N[C@H](CO)C(=O)N[C@H](CCCNC(=N)N)C(N)=O)C1CCCCC1 [Compound 35, Ac-c(C)-r-r-(D-Chg)-r-s-r-NH2] (Ac-[dC](Cys(free,S-linked))[dR][dR][dChg][dR][dS][dR]-NH2) | 12.9 |
